target: Genome polyprotein (dengue virus type 2); assay: Dengue-2 NS5 methyltransferase inhibitors, primary screen, biochemical, confirmation dose response (AID 588689); assay type: functional
Sequence (P29990 2492-3391 limits assumed): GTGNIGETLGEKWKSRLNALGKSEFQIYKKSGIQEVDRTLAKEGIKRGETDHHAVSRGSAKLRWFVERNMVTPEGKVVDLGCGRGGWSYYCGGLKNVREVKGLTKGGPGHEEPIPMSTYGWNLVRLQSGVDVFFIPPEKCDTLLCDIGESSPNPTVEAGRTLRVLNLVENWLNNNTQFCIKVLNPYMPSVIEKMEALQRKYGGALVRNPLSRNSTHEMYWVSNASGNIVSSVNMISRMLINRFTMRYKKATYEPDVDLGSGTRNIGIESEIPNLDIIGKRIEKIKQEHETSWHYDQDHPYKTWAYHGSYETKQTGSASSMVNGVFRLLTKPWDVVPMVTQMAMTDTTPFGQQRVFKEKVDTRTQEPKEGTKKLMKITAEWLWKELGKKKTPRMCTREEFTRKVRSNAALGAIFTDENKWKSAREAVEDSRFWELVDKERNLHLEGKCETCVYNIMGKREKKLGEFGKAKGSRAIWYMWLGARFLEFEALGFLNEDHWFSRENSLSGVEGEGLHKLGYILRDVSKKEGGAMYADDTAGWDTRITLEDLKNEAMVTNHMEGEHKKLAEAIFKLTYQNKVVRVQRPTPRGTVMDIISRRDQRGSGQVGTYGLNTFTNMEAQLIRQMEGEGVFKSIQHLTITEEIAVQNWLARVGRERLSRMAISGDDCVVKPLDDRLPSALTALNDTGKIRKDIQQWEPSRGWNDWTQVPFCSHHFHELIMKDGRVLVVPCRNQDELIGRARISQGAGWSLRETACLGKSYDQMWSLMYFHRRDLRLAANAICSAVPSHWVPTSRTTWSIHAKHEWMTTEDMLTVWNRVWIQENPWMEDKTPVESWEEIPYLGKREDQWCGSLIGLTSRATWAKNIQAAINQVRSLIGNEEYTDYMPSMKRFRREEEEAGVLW
Activity calls are given as the source filed them. How the calls were made is not given here.
Let's look at some molecules and their measured IC50.
ASSAY METRIC: IC50

[[record]]
molecule = "O=C(O)c1ccccc1N=N/C(=N/Nc1cc(S(=O)(=O)O)ccc1O)c1ccccc1"
assay_metric = "IC50"
readout_value = "19.1 µM (active)"

[[record]]
molecule = "O=C(O)c1cc([N+](=O)[O-])c(NCCC2=CCCCC2)c([N+](=O)[O-])c1"
assay_metric = "IC50"
readout_value = "72.8 µM (active)"

[[record]]
molecule = "O=C(O)COc1ccc(/C=C/C(=O)c2ccc(C3CCCCC3)cc2)cc1"
assay_metric = "IC50"
readout_value = "47.7 µM (active)"

[[record]]
molecule = "O=C(Cc1cnn(-c2ccccc2)c1)c1ccc(O)c(O)c1O"
assay_metric = "IC50"
readout_value = "75.7 µM (active)"

[[record]]
molecule = "CC1=NN(c2ccc(Cl)c(C(=O)O)c2)C(=O)/C1=C/c1ccc(-c2ccccc2[N+](=O)[O-])o1"
assay_metric = "IC50"
readout_value = "9.5 µM (active)"

[[record]]
molecule = "CCC1(C)Cc2c(sc3[nH]c(=O)[nH]c(=O)c23)CS1 (stereo not given)"
assay_metric = "IC50"
readout_value = "88.7 µM (active)"

[[record]]
molecule = "CCOC(=O)C1Nc2ccc(C(=O)O)cc2C2C=CCC12 (stereo not given)"
assay_metric = "IC50"
readout_value = "44.9 µM (active)"

[[record]]
molecule = "O=C(O)c1ccc(/C=C2\\SC(=S)N(Nc3ccccc3)C2=O)cc1"
assay_metric = "IC50"
readout_value = "58 µM (active)"

[[record]]
molecule = "O=C(CSc1nc(O)c(Cc2ccccc2)c(O)n1)Nc1nnc(SCc2ccccc2)s1"
assay_metric = "IC50"
readout_value = "43.3 µM (active)"

[[record]]
molecule = "O=C1c2ccccc2C(=O)c2c(/C=C/N3CCCCC3)ccnc21"
assay_metric = "IC50"
readout_value = "61.6 µM (active)"


---

molecular target: Heat shock protein HSP 90-alpha (Homo sapiens); assay type: functional, organism-based
Activity calls are given as the source filed them.
Let's look at some molecules and their measured AC50.
ASSAY METRIC: AC50

[[record]]
molecule = "COc1cccc(/C=N/Nc2ncnc3scc(-c4ccccc4)c23)c1O"
assay_metric = "AC50"
readout_value = "24.5 µM (active)"

[[record]]
molecule = "O=C1c2cc(F)ccc2-n2c1nc1ccccc1c2=O"
assay_metric = "AC50"
readout_value = "3.73 µM (active)"

[[record]]
molecule = "CCOc1ccc(NCc2cc3c(C(C)(C)C)nn(-c4ccccc4)c3nc2O)cc1"
assay_metric = "AC50"
readout_value = "8.84 µM (active)"

[[record]]
molecule = "CCCC(=O)NC(c1ccccc1)c1ccc2cccnc2c1O (stereo not given)"
assay_metric = "AC50"
readout_value = "4.65 µM (active)"

[[record]]
molecule = "Nc1nonc1C(=O)NCC/N=C/c1cc(Cc2ccccc2)cc(Br)c1O"
assay_metric = "AC50"
readout_value = "1.24 µM (active)"

[[record]]
molecule = "CC1CCN(c2nc(Cl)nc(Nc3ccc([N+](=O)[O-])cc3)n2)CC1"
assay_metric = "AC50"
readout_value = "17.6 µM (active)"

[[record]]
molecule = "COc1cc(N2C(=O)C=CC2=O)c(OC)cc1Cl"
assay_metric = "AC50"
readout_value = "2.72 µM (active)"

[[record]]
molecule = "CC(C)(C)C(=O)NC(=S)NNC(=O)c1sc2ccccc2c1Cl"
assay_metric = "AC50"
readout_value = "3.26 µM (active)"

[[record]]
molecule = "Oc1c(C(c2ccc(Cl)cc2)N2CCCC2)cc(Cl)c2cccnc12 (stereo not given)"
assay_metric = "AC50"
readout_value = "2.02 µM (active)"

[[record]]
molecule = "COC(=O)C1=C(C(=O)OC)SC2(S1)C(C(=O)OC)=C(C(=O)OC)Sc1c2ssc1=O"
assay_metric = "AC50"
readout_value = "4.21 µM (active)"

